Source of measurements: patent US20240190872A1

Form field: MIC A. baumannii AR 0033 (one value per entry).
# Tested on: A. baumannii AR 0033
# procedure_details: microbe, parasite or virus in culture
# Type: cell-based
# test_parameters: clinical isolate
Write down the numeric answer in µg/mL and omit the unit.

Solved cases (5 shown):
Cc1c(CN(C)C(=O)/C=C/c2cnc3c(c2)CCC(N)C(=O)N3)oc2ccccc12 (racemic) [(±)-11]; 4
Cc1c(CN(C)C(=O)C=Cc2cnc3c(c2)CC2(CC(N)C2)C(=O)N3)oc2ccccc12 (mixture of isomers) [(±)-6]; 16
Cc1c(CN(C)C(=O)/C=C/c2cnc3c(c2)CC2(CNC2)C(=O)N3)oc2ccccc12 [drawing 106]; 8
Cc1c(CN(C)C(=O)/C=C/c2cnc3c(c2)CC2(CNC2)C(=O)N3)oc2ccccc12 [Compound 5]; 8
Cc1c(CN(C)C(=O)/C=C/c2ccc3c(c2)CCC(N)C(=O)N3)oc2ccccc12 (single isomer, unassigned) [Isomer 2]; 2

Please turn your attention to the following entry.
Param readout= MIC A. baumannii AR 0033; system= A. baumannii AR 0033; entry= Cc1c(CN(C)C(=O)/C=C/c2cnc3c(c2)CC2(CC(CN)C2)C(=O)N3)oc2ccccc12 (stereo not drawn) ; returns value.
32
